Test system: SW-620 colon
measurement_protocol: NCI-60 one-dose screen, 48 h (100 = growth as untreated, 0 = no growth, -100 = all killed)
condition_label: 10 µM unless noted
The panel holds about 83,000 compounds, 20% with a hit somewhere; the sample as a whole holds those more often.
reported_metric: growth (%)
Your answer is read as %, so omit the unit and give the number.

# compound_smiles, growth, %
data = [
    ("CCCOc1ccc2nc(NC(=O)OC)[nH]c2c1", 22.8),
    ("CC/C=C\\C[C@H]1C/C=C2/C(=O)C=C[C@H]2C/C=C\\CCCC(=O)O1", 25.4),
    ("Cc1nc(Nc2ccc(F)c(Cl)c2)sc1C(=O)O", 24.8),
    ("COc1cc(/C=C/C(=O)c2ccc(O)c(CN3CCN(c4cc5c(cc4F)c(=O)c(C(=O)O)cn5C4CC4)CC3)c2)cc(OC)c1OC", 34.8),
]

# context switch: different molecule, same growth
Asked: Consider the molecule shown here: N#CN1CCC[C@H]1C(=O)N1CCc2c(-c3[nH]nc4ncccc34)cccc21 What is its recorded growth?
Given back: 15.1

Data provenance is PubChem BioAssay (NCI).
